System: Staphylococcus aureus
Test: Antimicrobial activity against Staphylococcus aureus ATCC 25923 after 16 to 18 hrs by agar dilution method
Assay type: functional
endpoint label: MIC (mg/L)
Unit mg/L implied. Number only.

*Q* Any idea what MIC was measured for CCO/N=C/CC(=O)c1ccc(C)cc1 ?
*A* 4

*Q* Check CO/N=C/CC(=O)c1ccccc1 too.
*A* 64

*Q* Check CCCCCCCCCC(=O)CC=O [HOUTTUYNIN] too.
*A* 32

----------
System: Staphylococcus aureus
Assay: Antimicrobial activity against methicillin-resistant Staphylococcus aureus isolate 3 after 16 to 18 hrs by agar dilution method
Assay type: functional
endpoint label: MIC

*Q* Hello, I am looking for reported MIC with Staphylococcus aureus for C[C@H]1COc2c(N3CCN(C)CC3)c(F)cc3c(=O)c(C(=O)O)cn1c23.C[C@H]1COc2c(N3CCN(C)CC3)c(F)cc3c(=O)c(C(=O)O)cn1c23.O . Could you help?
*A* 16 µg/mL

*Q* Check CCCCCCCCCC(=O)CC=O too.
*A* 16 µg/mL

*Q* Check CO/N=C/CC(=O)c1ccc(C(C)C)cc1 too.
*A* 8 µg/mL

*Q* Check CO/N=C/CC(=O)c1ccc(C)cc1 too.
*A* 8 µg/mL

*Q* Check CCO/N=C/CC(=O)c1ccc(C(C)C)cc1 too.
*A* 8 µg/mL

----------
System: Staphylococcus aureus
Assay: Antimicrobial activity against methicillin-resistant Staphylococcus aureus isolate 2 after 16 to 18 hrs by agar dilution method
Format: functional
Could you please report measured MIC for the items listed next?
Unit µg/mL implied. Number only.

*Q* Any idea what MIC was measured for C[C@H]1COc2c(N3CCN(C)CC3)c(F)cc3c(=O)c(C(=O)O)cn1c23.C[C@H]1COc2c(N3CCN(C)CC3)c(F)cc3c(=O)c(C(=O)O)cn1c23.O ?
*A* 8

*Q* Check CO/N=C/CC(=O)c1ccc(C)cc1 too.
*A* 8

*Q* Check CCO/N=C/CC(=O)c1ccc(C(C)C)cc1 too.
*A* 8

*Q* Check CO/N=C/CC(=O)c1ccc(C(C)C)cc1 too.
*A* 8

*Q* Check CCCCCCCCCC(=O)CC=O too.
*A* 16

----------
Test system: Staphylococcus aureus
Assay: Antimicrobial activity against Staphylococcus aureus ATCC 25923 after 16 to 18 hrs by agar dilution method
Format: functional
endpoint label: MIC (µg/mL)
Unit µg/mL implied. Number only.

*Q* Any idea what MIC was measured for CCc1ccc(C(=O)C/C=N/OC)cc1 ?
*A* 4

*Q* Check CCc1ccc(/C(C/C=N/OC)=N\OC)cc1 too.
*A* 32

*Q* Check C[C@H]1COc2c(N3CCN(C)CC3)c(F)cc3c(=O)c(C(=O)O)cn1c23.C[C@H]1COc2c(N3CCN(C)CC3)c(F)cc3c(=O)c(C(=O)O)cn1c23.O too.
*A* 0.25

*Q* Check CO/N=C(/C/C=N/OC)c1ccc(C(C)C)cc1 too.
*A* 32

*Q* Check O=C(C/C=N/O)c1ccccc1 too.
*A* 64

*Q* Check CCO/N=C(/C/C=N/OCC)c1ccc(CC)cc1 too.
*A* 32

*Q* Check CCO/N=C/CC(=O)c1ccc(C(C)C)cc1 too.
*A* 1

*Q* Check CO/N=C/CC(=O)c1ccc(C(C)C)cc1 too.
*A* 2
